B1: Azoarcus group I ribozyme (parent)
chain: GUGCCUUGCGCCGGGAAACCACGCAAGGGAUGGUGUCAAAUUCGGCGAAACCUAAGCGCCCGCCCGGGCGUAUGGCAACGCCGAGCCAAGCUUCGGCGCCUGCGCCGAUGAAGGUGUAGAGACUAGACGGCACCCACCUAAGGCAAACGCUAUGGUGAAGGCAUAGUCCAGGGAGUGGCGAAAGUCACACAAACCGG

variants of: B1; assay: reverse-splicing fitness (ratio to wild type); higher = more active; in vitro selection; Mg2+ level not given
ATTRIBUTE MEASURED: reverse-splicing fitness

>>> value_measured("C82A A120G A145C C150U U176C")
0.0102
>>> value_measured("C82A A111C A120C A145G")
0.0258
>>> value_measured("A120C A145C C150A C169G U176C")
0.00769
>>> value_measured("C82G A145U C150U C169A")
0.00964
>>> value_measured("A111C A120G A145G C150U C169G U176A")
0.0243
>>> value_measured("A111U A120C A145C C150A C169A U176A")
0.0101
>>> value_measured("C82A A111U A120G A145U C150A U176G")
0.00656
>>> value_measured("C150A C169U")
0.061
>>> value_measured("C82G A111C A120C A145C C150G C169U")
0.00944
>>> value_measured("C82G A111C A120C A145U C169U U176G")
0.00641
>>> value_measured("A111C C150A U176G")
0.0531
>>> value_measured("A120C A145G C150U")
0.781
>>> value_measured("A111G A120C A145C C150G C169U U176C")
0.0127
>>> value_measured("C82U A111U A145C C150U C169G")
0.00801
>>> value_measured("C82G C150U C169U U176A")
0.0142
>>> value_measured("A145C C169U")
0.351
>>> value_measured("C82A A145U C169A U176C")
0.00899
>>> value_measured("C82A A111U A120G A145U C169G")
0.00975
>>> value_measured("A120C A145G C169A U176C")
0.024
>>> value_measured("C82A A120C A145G C150U C169A U176A")
0.0169
>>> value_measured("C82U A120U A145U C150G U176C")
0.0104
>>> value_measured("C82U A111G A120U A145U C150U U176A")
0.00763

Numbers sourced from the RNAGym collection of RNA variant scans (doi:10.1093/molbev/msab373).
